Attribute: AC50
SYSTEM UNDER TEST: Equilibrative nucleoside transporter 1 (Homo sapiens, UniProt Q99808); further: assay procedure not described here
Sequence (Q99808 whole entry): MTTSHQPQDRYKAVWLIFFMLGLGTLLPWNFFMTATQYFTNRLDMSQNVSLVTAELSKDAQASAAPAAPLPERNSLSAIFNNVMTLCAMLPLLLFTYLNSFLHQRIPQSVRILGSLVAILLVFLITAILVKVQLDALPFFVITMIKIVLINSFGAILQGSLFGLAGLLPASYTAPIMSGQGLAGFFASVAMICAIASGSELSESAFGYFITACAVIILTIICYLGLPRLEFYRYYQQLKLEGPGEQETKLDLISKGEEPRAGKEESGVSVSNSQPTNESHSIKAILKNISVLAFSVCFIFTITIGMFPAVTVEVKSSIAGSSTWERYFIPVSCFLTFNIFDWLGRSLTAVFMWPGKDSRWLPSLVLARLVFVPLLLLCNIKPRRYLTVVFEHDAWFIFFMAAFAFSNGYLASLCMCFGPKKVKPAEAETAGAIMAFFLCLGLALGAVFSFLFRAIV
VALUE TYPE: AC50

> print(dat)
                                    compound  value.type   result
 1  CN1C2CCCC1CC(NC(=O)c1nn(C)c3ccccc13)C2 (centres undefined)        AC50  > 30 µM
 2        CCN(CC)CCCN(c1ccccc1)C1Cc2ccccc2C1        AC50  > 30 µM
 3  CCC(=O)c1ccc2c(c1)N(CC(C)N(C)C)c1ccccc1S2 (centres undefined)        AC50  > 10 µM
 4  CCOCC(O)COc1ccc(NC(=O)CC[S+](C)C)cc1 (centres undefined)        AC50  > 30 µM
 5  COC(=O)[C@H]1[C@H]2C[C@@H]3c4[nH]c5ccccc5c4CCN3C[C@H]2C[C@@H](OC(=O)c2cc(OC)c(OC)c(OC)c2)[C@@H]1OC        AC50  > 10 µM
 6  CCN1C(=O)NC(c2ccccc2)C1=O (centres undefined)        AC50  > 30 µM
 7  CC(C(=O)O)c1ccc(C(=O)c2ccccc2)s1 (centres undefined)        AC50  > 10 µM
 8  CO/N=C(\C(=O)N[C@@H]1C(=O)N2C(C(=O)O)=C(CSc3nc(C)c(CC(=O)O)s3)CS[C@H]12)c1csc(N)n1        AC50  > 30 µM
 9  CCN(CC)Cc1nccn1-c1ccc([N+](=O)[O-])cc1C(=O)c1ccccc1Cl        AC50  > 30 µM
10                              CNCCc1ccccn1        AC50  > 30 µM
11  CC(C)CN(C[C@@H](O)[C@H](Cc1ccccc1)NC(=O)O[C@H]1CCOC1)S(=O)(=O)c1ccc(N)cc1        AC50  > 10 µM
12  C[C@H](Cn1cnc2c(N)ncnc21)OCP(=O)(O)O [TENOFOVIR ANHYDROUS]        AC50  > 30 µM
13     Cc1nnc2n1-c1ccc(Cl)cc1C(c1ccccc1)=NC2        AC50  > 30 µM
14  CCC(=O)O[C@H](CC(=O)O)C[N+](C)(C)C [LEVOCARNITINE PROPIONATE]        AC50  > 30 µM

----------
Here's what we have: AC50 numbers for Motilin receptor (Homo sapiens, UniProt O43193).
VALUE TYPE: AC50

> print(dat)
                                    compound  value.type   result
 1  CN1C(=O)CN=C(c2ccccc2F)c2cc([N+](=O)[O-])ccc21        AC50  > 10 µM
 2  CS(=O)(=O)NC(=O)CCC/C=C\C[C@H]1C(=O)C[C@@H](O)[C@@H]1/C=C/[C@@H](O)COc1ccccc1        AC50  > 30 µM
 3                   O=c1[nH]cc(F)c(=O)[nH]1        AC50  > 30 µM
 4             Nc1cc(N2CCCCC2)nc(N)[n+]1[O-]        AC50  > 10 µM
 5  CN(C)CCCC1(c2ccc(F)cc2)OCc2cc(C#N)ccc21 (stereo not given)        AC50  > 10 µM
 6   OCC(O)COc1ccc(Cl)cc1 (stereo not given)        AC50  > 10 µM
 7  COc1cccc2c1C(=O)c1c(O)c3c(c(O)c1C2=O)C[C@@](O)(C(=O)CO)C[C@@H]3O[C@H]1C[C@H](N)[C@H](O)[C@H](C)O1        AC50  > 30 µM
 8     O=C(O)COC(=O)Cc1ccccc1Nc1c(Cl)cccc1Cl        AC50  > 10 µM
 9  CO/N=C(\C(=O)N[C@@H]1C(=O)N2C(C(=O)[O-])=C(C[n+]3ccc(N)n3CCO)CS[C@H]12)c1csc(N)n1        AC50  > 30 µM
10  CC1=C(/C=C/C(C)=C/C=C/C(C)=C/C(=O)Oc2c(C)c(C)c3c(c2C)CCC(C)(CCCC(C)CCCC(C)CCCC(C)C)O3)C(C)(C)CCC1 (stereo not given)        AC50  > 30 µM
11      CC1NCCOC1c1ccccc1 (stereo not given)        AC50  > 10 µM
12  CCCO[C@H]1[C@@H]([C@@H](COCc2ccc(Cl)cc2)OCc2ccc(Cl)cc2)OC(OCC)[C@@H]1O (stereo not given in full) [CLOBENOSIDE]        AC50  > 30 µM
13  CN(C)CCOC(c1ccc(Cl)cc1)c1ccccn1 (stereo not given)        AC50  > 30 µM
14            CN(C)CCC=C1c2ccccc2CCc2ccccc21        AC50  > 30 µM
15     CCCCOC(=O)C(=O)Nc1cccc(-c2nnn[nH]2)c1        AC50  > 30 µM
16  CN(C)[C@@H]1C(O)=C(C(=O)NCN2CCCC2)C(=O)[C@@]2(O)C(O)=C3C(=O)c4c(O)cccc4[C@@](C)(O)[C@H]3C[C@@H]12        AC50  > 10 µM
17  Nc1c2c(nc3ccccc13)CCCC2O (stereo not given)        AC50  > 30 µM
18  CO[C@@H]1[C@@H](OC(N)=O)[C@@H](O)[C@H](Oc2ccc3c(O)c(NC(=O)c4ccc(O)c(CC=C(C)C)c4)c(=O)oc3c2C)OC1(C)C        AC50  > 30 µM
19  COC(=O)[C@H]1[C@H]2C[C@@H]3c4[nH]c5ccccc5c4CCN3C[C@H]2C[C@@H](OC(=O)c2cc(OC)c(OC)c(OC)c2)[C@@H]1OC        AC50  > 30 µM
20                CCC1(c2ccccc2)C(=O)NCNC1=O        AC50  > 10 µM

These measurements were taken from ChEMBL document CHEMBL5291721.
